Tested on: U2OS
Test: Multiplex assay against U2OS
Assay type: toxicity, cell-based
Details: human, 24 h, 10 µM, compound concentration 10 uM, replicate 1
We label by threshold. Values of Population Membrane Permeable-Phenotype (%) strictly beneath 50% are y. Values of 50% and up are n.

INPUT: Could you please tell me whether Population Membrane Permeable-Phenotype (%) recorded for CN1CCN(c2ccc(OC(F)(F)F)c(Nc3ncc4c(n3)-c3c(c(C(N)=O)nn3CCO)CC4)c2)CC1 is less than 50%?
OUTPUT: y

INPUT: Now give it for CN(C)C(=O)/C(C#N)=C/c1ccc(-c2nc3cnc4[nH]ccc4c3n2C2CCCCC2)o1 too.
OUTPUT: y

INPUT: Now give it for C[C@@H](NCCCc1cccc(C(F)(F)F)c1)c1cccc2ccccc12.Cl [CINACALCET HYDROCHLORIDE] too.
OUTPUT: y

INPUT: Now give it for CN1CCC[C@@H]1CCO[C@](C)(c1ccccc1)c1ccc(Cl)cc1.O=C(O)/C=C/C(=O)O [CLEMASTINE FUMARATE] too.
OUTPUT: y

INPUT: Now give it for Cc1cc(C)cc(-c2cnc3cc(Cl)c(-c4cccc(O)c4)cc3c2OCCCN)c1 too.
OUTPUT: n

INPUT: Now give it for CN1CCN(CCOc2cc(OC3CCOCC3)c3c(Nc4c(Cl)ccc5c4OCO5)ncnc3c2)CC1 too.
OUTPUT: y

INPUT: Now give it for CC(C)(O)CNc1ncc(-c2ccnc(Nc3ccnc(Cl)c3)n2)c(CC2CC2)n1 too.
OUTPUT: y

INPUT: Now give it for Cn1cc(-c2[nH]c3cc(NC(=O)[C@H](N)C4CCCCC4)cc4c3c2C=NNC4=O)cn1 too.
OUTPUT: y

INPUT: Now give it for C=CC(=O)Nc1cccc(C(=O)Nc2ccc(Nc3cc(-c4[nH]c(SC)nc4C)ccn3)cc2)c1 too.
OUTPUT: y

INPUT: Now give it for Cc1csc2c(N[C@@H](C)CN3CCN(S(=O)(=O)c4ccc(Cl)c(Cl)c4)CC3)ncnc12 too.
OUTPUT: n

INPUT: Now give it for c1cn2cc(-c3ccc4cn[nH]c4c3)nc(Nc3ccc(N4CCOCC4)cc3)c2n1 too.
OUTPUT: y

INPUT: Now give it for CNc1nc(NCc2ccc(NS(C)(=O)=O)cc2Cl)cc(-c2ccccn2)n1 too.
OUTPUT: y

INPUT: Now give it for Cl.N#Cc1ccc2[nH]cc(CCCCN3CCN(c4ccc5oc(C(N)=O)cc5c4)CC3)c2c1 [VILAZODONE HYDROCHLORIDE] too.
OUTPUT: n

INPUT: Now give it for COc1cc2nccc(Oc3ccc(NC(=O)Nc4cc(C)on4)c(Cl)c3)c2cc1OC.O too.
OUTPUT: n

INPUT: Now give it for CCN(CC)CCCCNc1ncc2cc(-c3cc(OC)cc(OC)c3)c(NC(=O)NC(C)(C)C)nc2n1 too.
OUTPUT: y

INPUT: Now give it for COc1cccc([C@@H](C)NCCCc2ccccc2Cl)c1.Cl [TECALCET HYDROCHLORIDE] too.
OUTPUT: y

Taken from ChEMBL document CHEMBL4689842.
